assay: Apparent clearance during terminal phase in Sprague-Dawley rat at 25 mg/kg, ip measured for 48 hrs by LC-MS/MS analysis; assay type: ADME, organism-based; settings: in vivo, read-out: CLz/F (converted)
measure: CL/F (mL/min/kg)
One number for each entry, in mL/min/kg.

Hi there! I need CL/F for each item below, if you can.
1. COc1ccc(CC(=O)N/N=C/c2c(O)ccc3ccccc23)cc1
2. O=C(/C=C/c1ccccc1)Nc1cc(-c2ccnc(N3CCC(CO)CC3)c2)ccn1

Response given:
61.2
25.8

----------
Please respond with reported Activity for every item in the list.
test system: HepG2; test: Antiproliferative activity against human HepG2 cells assessed as cell viability rate at 5 uM incubated for 72 hrs by MTT assay relative to control; type: functional
One number for each entry, in %.

# mol smiles, test system, measure, measured number
data = [
    ("O=C(Cc1cccc(F)c1)Nc1ccc(-c2ccnc(N3CCC(CO)CC3)c2)cn1", "HepG2", "Activity", 65.95),
    ("CN(CCO)c1cc(-c2ccc(NC(=O)Cc3cccc(F)c3)nc2)ccn1", "HepG2", "Activity", 91.54),
    ("O=C(/C=C/c1ccccc1)Nc1ccc(-c2ccnc(N3CCC(CO)CC3)c2)cn1", "HepG2", "Activity", 31.76),
    ("Cc1ccc(CC(=O)Nc2ccc(-c3ccnc(N4CCC(C)CC4)c3)cn2)cc1", "HepG2", "Activity", 88.24),
    ("Cc1cccc(CC(=O)Nc2cc(-c3ccnc(N4CCC(CO)CC4)c3)ccn2)c1", "HepG2", "Activity", 60.73),
]

Hi there! I need Activity for each item below, if you can.
1. Cc1ccc(CC(=O)Nc2ccc(-c3ccnc(N4CCN(C)CC4)c3)cn2)cc1
2. O=C(/C=C/c1cccc(F)c1)Nc1cc(-c2ccnc(N3CCC(CO)CC3)c2)ccn1
3. COc1cccc(CC(=O)Nc2cc(-c3ccnc(N4CCC(CO)CC4)c3)ccn2)c1
4. COc1cccc(CC(=O)Nc2ccc(-c3ccnc(N(C)CCO)c3)cn2)c1
5. O=C(/C=C/c1ccccc1)Nc1cc(-c2ccnc(N3CCC(CO)CC3)c2)ccn1

Response given:
98.32
46.35
92.25
86.14
42.38

Hi there! I need Activity for each item below, if you can.
1. O=C(/C=C/c1cccc(F)c1)Nc1ccc(-c2ccnc(N3CCC(CO)CC3)c2)cn1
2. CC1CCN(c2cc(-c3ccc(NC(=O)Cc4cccc(F)c4)nc3)ccn2)CC1
3. COc1cccc(CC(=O)Nc2ccc(-c3ccnc(N4CCC(CO)CC4)c3)cn2)c1

Response given:
1: 31.25; 2: 59.64; 3: 27.89

Hi there! I need Activity for each item below, if you can.
1. CC1CCN(c2cc(-c3ccnc(NC(=O)Cc4cccc(F)c4)c3)ccn2)CC1
2. COc1cccc(CC(=O)Nc2cc(-c3ccnc(N4CCC(C)CC4)c3)ccn2)c1
3. COc1cccc(CC(=O)Nc2ccc(-c3ccnc(N4CCN(C)CC4)c3)cn2)c1

Response given:
93.8
110.22
85.3

Hi there! I need Activity for each item below, if you can.
1. COc1ccc(CC(=O)N/N=C/c2c(O)ccc3ccccc23)cc1
2. Cc1ccc(CC(=O)Nc2ccc(-c3ccnc(N(C)CCO)c3)cn2)cc1

Response given:
[48.65, 87.52]

Hi there! I need Activity for each item below, if you can.
1. Cc1cccc(CC(=O)Nc2ccc(-c3ccnc(N(C)CCO)c3)cn2)c1
2. Cc1cccc(/C=C/C(=O)Nc2ccc(-c3ccnc(N4CCC(CO)CC4)c3)cn2)c1

Response given:
89.85
38.09

----------
assay: Cmax in Sprague-Dawley rat at 25 mg/kg, ip measured for 48 hrs by LC-MS/MS analysis; type: ADME, organism-based; set-up: time 48 hrs, dose 25 mg/kg, route ip; details: in vivo
measure: Cmax

# mol smiles, Cmax
rows = [
    ("O=C(/C=C/c1ccccc1)Nc1cc(-c2ccnc(N3CCC(CO)CC3)c2)ccn1", "8080 ng/mL"),
]

Lab note: next compound to report on.
What the record says about COc1ccc(CC(=O)N/N=C/c2c(O)ccc3ccccc23)cc1 : Cmax is 1060 ng/mL

----------
tested on: MDA-MB-231; assay: Antiproliferative activity against human MDA-MB-231 cells assessed as cell viability rate at 5 uM incubated for 72 hrs by MTT assay relative to control; assay type: functional
// NB: equality with 80% counts as 0 (no); only Activity strictly below is 1 (yes)

Previously resolved entries follow.
# mol smiles, classification
records = [
    ("Cc1cccc(CC(=O)Nc2ccc(-c3ccnc(N4CCC(C)CC4)c3)cn2)c1", "1 (yes)"),
    ("O=C(/C=C/c1cccc(F)c1)Nc1cc(-c2ccnc(N3CCC(CO)CC3)c2)ccn1", "1 (yes)"),
    ("O=C(/C=C/c1cccc(F)c1)Nc1ccc(-c2ccnc(N3CCC(CO)CC3)c2)cn1", "1 (yes)"),
    ("Cc1cccc(/C=C/C(=O)Nc2cc(-c3ccnc(N4CCC(CO)CC4)c3)ccn2)c1", "1 (yes)"),
    ("Cc1cccc(CC(=O)Nc2ccc(-c3ccnc(N(C)CCO)c3)cn2)c1", "1 (yes)"),
    ("Cc1ccc(CC(=O)Nc2ccc(-c3ccnc(N4CCN(C)CC4)c3)cn2)cc1", "0 (no)"),
]

Challenge: Determine whether this compound shows Activity lower than 80% (ties excluded): Cc1ccc(CC(=O)Nc2ccc(-c3ccnc(N(C)CCO)c3)cn2)cc1
Response given: 0 (no)

Challenge: Determine whether this compound shows Activity lower than 80% (ties excluded): COc1cccc(CC(=O)Nc2ccc(-c3ccnc(N4CCC(CO)CC4)c3)cn2)c1
Response given: 1 (yes)

Challenge: Determine whether this compound shows Activity lower than 80% (ties excluded): O=C(/C=C/c1ccccc1)Nc1ccc(-c2ccnc(N3CCC(CO)CC3)c2)cn1
Response given: 1 (yes)

Challenge: Determine whether this compound shows Activity lower than 80% (ties excluded): Cc1cccc(CC(=O)Nc2cc(-c3ccnc(N4CCC(C)CC4)c3)ccn2)c1
Response given: 0 (no)

Challenge: Determine whether this compound shows Activity lower than 80% (ties excluded): Cc1ccc(CC(=O)Nc2ccc(-c3ccnc(N4CCC(C)CC4)c3)cn2)cc1
Response given: 1 (yes)

Challenge: Determine whether this compound shows Activity lower than 80% (ties excluded): O=C(Cc1cccc(F)c1)Nc1ccc(-c2ccnc(N3CCC(CO)CC3)c2)cn1
Response given: 1 (yes)

Challenge: Determine whether this compound shows Activity lower than 80% (ties excluded): Cc1cccc(CC(=O)Nc2cc(-c3ccnc(N4CCC(CO)CC4)c3)ccn2)c1
Response given: 1 (yes)

Challenge: Determine whether this compound shows Activity lower than 80% (ties excluded): CN(CCO)c1cc(-c2ccc(NC(=O)Cc3cccc(F)c3)nc2)ccn1
Response given: 0 (no)

Challenge: Determine whether this compound shows Activity lower than 80% (ties excluded): O=C(Cc1cccc(F)c1)Nc1cc(-c2ccnc(N3CCC(CO)CC3)c2)ccn1
Response given: 0 (no)

Challenge: Determine whether this compound shows Activity lower than 80% (ties excluded): O=C(/C=C/c1ccccc1)Nc1cc(-c2ccnc(N3CCC(CO)CC3)c2)ccn1
Response given: 1 (yes)

----------
tested on: HepG2; assay: Antiproliferative activity against human HepG2 cells assessed as cell viability rate at 5 uM incubated for 72 hrs by MTT assay relative to control; type: functional
Please respond with reported Activity for every item in the list.

In the examples that follow, each entry is paired with its recorded Activity.
# mol smiles, result
data = [
    ("O=C(CCc1ccccc1)Nc1cc(-c2ccnc(N3CCC(CO)CC3)c2)ccn1", "37.04%"),
    ("Cc1cccc(CC(=O)Nc2cc(-c3ccnc(N4CCC(C)CC4)c3)ccn2)c1", "106.32%"),
]

Hi there! I need Activity for each item below, if you can.
1. Cc1cccc(/C=C/C(=O)Nc2cc(-c3ccnc(N4CCC(CO)CC4)c3)ccn2)c1
2. Cc1cccc(CC(=O)Nc2ccc(-c3ccnc(N4CCC(CO)CC4)c3)cn2)c1
3. CN1CCN(c2cc(-c3ccc(NC(=O)Cc4cccc(F)c4)nc3)ccn2)CC1
4. Cc1cccc(CC(=O)Nc2ccc(-c3ccnc(N4CCN(C)CC4)c3)cn2)c1
5. COc1cccc(CC(=O)Nc2ccc(-c3ccnc(N4CCC(C)CC4)c3)cn2)c1
6. Cc1cccc(CC(=O)Nc2ccc(-c3ccnc(N4CCC(C)CC4)c3)cn2)c1
7. O=C(Cc1cccc(F)c1)Nc1cc(-c2ccnc(N3CCC(CO)CC3)c2)ccn1

Response given:
27.5%
29.6%
84.3%
86.83%
55.19%
42.4%
88.95%

What the record says about Cc1ccc(CC(=O)Nc2ccc(-c3ccnc(N4CCC(CO)CC4)c3)cn2)cc1 : Activity is 51.27%

----------
assay: Apparent volume of distribution during terminal phase in Sprague-Dawley rat at 25 mg/kg, ip measured for 48 hrs by LC-MS/MS analysis; type: ADME, organism-based; details: in vivo, read-out: Vz/F
Please respond with reported Vd/F for every item in the list.
Give bare numbers, in L/kg.

# mol smiles, measured number
rows = [
    ("COc1ccc(CC(=O)N/N=C/c2c(O)ccc3ccccc23)cc1", 11.3),
]

Lab note: next compound to report on.
What the record says about O=C(/C=C/c1ccccc1)Nc1cc(-c2ccnc(N3CCC(CO)CC3)c2)ccn1 : Vd/F is 5.15
